molecular target: GAL4 DBD-CfEcR(DEF)/VP16AD-MmRXRE (Choristoneura fumiferana, UniProt O77240); experiment: 13B3 Assay (CHO stable cell line, luciferase reporter); conditions: read-out: 13B3 EC50; CHO 13B3 stable cell line, luciferase reporter, 48 h; average of two wells
I'd be grateful if you could share measured pEC50 for these entries.
A value of pEC50 is the negative decimal logarithm of a concentration given in moles per litre.

`CCc1c(OC)cccc1C(=O)NN(C(=O)c1cc(OC)c(C)c(OC)c1)C(C)(C)C#N` has a reported pEC50 of 6.20

CCc1c(C(=O)NN(C(=O)c2cc(C)cc(C)c2)C(C)(C)C)ccc2c1OC(C)O2 (centres unmarked) has a reported pEC50 of 6.25

According to the records, this molecule `CCc1c(C(=O)NN(C(=O)c2cc(Cl)nc(Cl)c2)C(C)(C)C)ccc2c1OCCO2` displays pEC50 of 5.87

molecule `Cc1cc(C)cc(C(=O)N(NC(=O)c2ccc(CC#N)cc2)C(C)(C)C)c1` , pEC50 observed: 5.40

Noted for CCCCC(CC)N(NC(=O)c1cccc(C)c1C)C(=O)c1ccccc1 (racemic) : its pEC50 reads 4.55

Please fill in: pEC50 reported for `CCc1c(OC)cccc1C(=O)NN(C(=O)c1cc(F)c(Cl)cc1Cl)C(C)(C)C` = 5.70

Form field pEC50, entry `CCc1c(C(=O)NN(C(=O)c2cc(F)ccc2F)C(C)(C)C)ccc2c1OCCO2` : 6.07

Reported pEC50 of `CCc1ccc(C(=O)NN(C(=O)c2cc(C)c(Cl)c(C)c2)C(C)(C)C)cc1` : 5.98

Summary for this molecule, `Cc1c(C(=O)NN(C(=O)c2ccc(F)c(F)c2)C(C)(C)C)ccc2c1CCCO2` : pEC50 is 6.03

Record `CCc1c(OC)cccc1C(=O)NN(C(=O)c1cc(C)cc(C)c1)C(C)(C)C#N` . Reported pEC50: 5.57

pEC50 measured on `Cc1c(Cl)cccc1C(=O)NN(C(=O)c1cccc(Cl)c1)C(C)(C)C` = 6.43

Reported pEC50 for `CC(C)(C)N(NC(=O)c1ccc(Br)cc1)C(=O)c1cc(Cl)cc(Cl)c1` was 6.06

Sample `CCc1c(OC)cccc1C(=O)NN(C(=O)c1cc(C)cc(C=NNC(=O)C(N)=O)c1)C(C)(C)C` ; pEC50 observed: 5.23

The recorded pEC50 for entry `CCc1c(OC)cccc1C(=O)NN(C(=O)c1ccc(Cl)cc1[N+](=O)[O-])C(C)(C)C` equals 6.08

Documented pEC50 of `CCc1c(C(=O)NN(C(=O)c2cccc(C)c2)C(C)(C)C)ccc2c1OCCO2` : 6.65

Reported pEC50 for `Cc1ccc([N+](=O)[O-])c(C(=O)N(NC(=O)c2ccc3c(c2C)CCCO3)C(C)(C)C)c1` was 6.49

###

Record form. Attribute: 13B3 assay Rel Max FI. Fill in for each entry.
target: GAL4 DBD-CfEcR(DEF)/VP16AD-MmRXRE (Choristoneura fumiferana, UniProt O77240); experiment: 13B3 Assay (CHO stable cell line, luciferase reporter); details: maximum fold induction at any concentration relative to that of GS-E ligand; CHO 13B3 cells
Respond with the number and no other words.

// 13B3 assay Rel Max FI lookup, compound = CCc1c(OC)cccc1C(=O)NN(C(=O)c1cc(C)cc(C)c1)C(C)(C)COC(C)=O [RG-115310] , result: 0.676

// 13B3 assay Rel Max FI value for CCc1c(OC)cccc1C(=O)NN(C(=O)c1cc(C)cc(C)c1)C(C)(C)COC [RG-115006] : 0.890

Lab book: 13B3 assay Rel Max FI of Cc1c(C(=O)NN(C(=O)c2cc(F)cc(C(F)(F)F)c2)C(C)(C)C)ccc2c1OCCO2 [RG-115169] noted as 0.618

Kindly note the recorded 13B3 assay Rel Max FI for CCc1c(OC)cccc1C(=O)NN(C(=O)c1cc(C)cc(C)c1)C(C)(C)CO [RG-115143] , which is 0.651

The recorded 13B3 assay Rel Max FI for entry CCc1c(OC)cccc1C(=O)NN(C(=O)c1c(F)cccc1F)C(C)(C)C [RG-115033] equals 0.643

The measured 13B3 assay Rel Max FI associated with COc1cccc(C(=O)NN(C(=O)c2cc(C)cc(Br)c2)C(C)(C)C)c1C [RG-101353] reads 1.163

COc1cccc(C(=O)NN(C(=O)c2cc(C)cc(C)c2)C(C)(C)C)c1C[S+](C)[O-] (centres unmarked) [RG-115172] yielded 13B3 assay Rel Max FI of 0

Per the records, this compound ( CCc1c(OC)cccc1C(=O)NN(C(=O)c1cc(C)cc(/C=N/NC(N)=O)c1)C(C)(C)C [RG-115429] ) has 13B3 assay Rel Max FI equal to 1.065

###

tested on: mutated ecdysone receptor-based gene switch; experiment: In vivo SEAP induction, ligand by IP injection; design: species or system C57BL/6 mouse; conditions: mouse serum, IP 2.6 μmol ligand, day 3 after ligand
ATTRIBUTE MEASURED: Secreted Alkaline Phosphatase (percentage of GS ™-E ligand induction) Day 3

Summary for this compound, `CCc1ccc(C(=O)NN(C(=O)c2cc(C)cc(C)c2)C(C)(C)C)c(F)c1` : Secreted Alkaline Phosphatase (percentage of GS ™-E ligand induction) Day 3 is 79 percentage of GS ™-E ligand induction

Secreted Alkaline Phosphatase (percentage of GS ™-E ligand induction) Day 3 measured on CCCC(N(NC(=O)c1cccc(OC)c1CC)C(=O)c1cc(OC)c(C)c(OC)c1)C(C)(C)C (centres unmarked) = 83 percentage of GS ™-E ligand induction

Consider CCC(N(NC(=O)c1cccc(OC)c1C)C(=O)c1cc(OC)c(C)c(OC)c1)C(C)(C)C (centres unmarked) . Its measured Secreted Alkaline Phosphatase (percentage of GS ™-E ligand induction) Day 3 is 63 percentage of GS ™-E ligand induction

Documented Secreted Alkaline Phosphatase (percentage of GS ™-E ligand induction) Day 3 of `Cc1c(C(=O)NN(C(=O)c2cc(F)c(F)c(F)c2)C(C)(C)C)ccc2c1CCCO2` : 78 percentage of GS ™-E ligand induction

The compound identified as `COc1ccc(C(=O)N(NC(=O)c2ccc3c(c2C)OCCO3)C(C)(C)C)c(OC)n1` registered its Secreted Alkaline Phosphatase (percentage of GS ™-E ligand induction) Day 3 at 3 percentage of GS ™-E ligand induction

Record CCc1ccc(C(=O)NN(C(=O)c2cc(C)cc(C)c2)C(C)C(C)(C)C)cc1 (centres unmarked) , field Secreted Alkaline Phosphatase (percentage of GS ™-E ligand induction) Day 3: 73 percentage of GS ™-E ligand induction

Looking up `CCc1c(OC)cccc1C(=O)NN(C(=O)c1cc(C)cc(C=NNC(=O)C(N)=O)c1)C(C)(C)C` , I see its Secreted Alkaline Phosphatase (percentage of GS ™-E ligand induction) Day 3 listed as 1 percentage of GS ™-E ligand induction

Measured Secreted Alkaline Phosphatase (percentage of GS ™-E ligand induction) Day 3, `COc1cc(C(=O)N(NC(=O)c2ccc3c(c2C)OCCO3)C(C)(C)C#N)cc(OC)c1C` : 2 percentage of GS ™-E ligand induction

Reported Secreted Alkaline Phosphatase (percentage of GS ™-E ligand induction) Day 3 ( `COc1cc(C(=O)N(NC(=O)c2ccc3c(c2C)OCCO3)C(C)(C)C)cc(OC)c1C` ) = 7 percentage of GS ™-E ligand induction

###

Exercise: for every item that follows, state its recorded pEC50.
biological target: GAL4 DBD (1-147)-CfEcR(DEF)/VP16AD-βRXREF-LmUSPEF (Choristoneura fumiferana, UniProt O77240); assay: cell-based
Lab note — pEC50 values are minus log10 of concentrations in M.

Lookup result for CCCC(N(NC(=O)c1cccc(OC)c1CC)C(=O)c1cc(OC)c(C)c(OC)c1)C(C)(C)C (centres unmarked) ; measured pEC50: 7.46

Sure, the documented pEC50 for CCCCC(N(NC(=O)c1cccc(OC)c1C)C(=O)c1cc(C)cc(C)c1)C(C)(C)C (centres unmarked) is 7.70

Notebook: `CCc1c(OC)cccc1C(=O)NN(C(=O)c1cc(C)cc(C)c1)C(C)(C)CO[Si](C)(C)C(C)(C)C` , pEC50 read as 5.26

For this molecule ( `CC(C)(C)N(NC(=O)c1ccc(Cl)cc1)C(=O)c1ccccc1` ), measured pEC50 is 4.76

CCc1c(C(=O)NN(C(=O)c2cc(OC)c(C)c(OC)c2)C(CC)C(C)(C)C)ccc2c1OCCO2 (centres unmarked) has a reported pEC50 of 8.15

What the record says about `CCc1c(OC)cccc1C(=O)NN(C(=O)c1cc(C)cc(C)c1)C(C)(C)C=O` : pEC50 is 5.98

The recorded pEC50 for entry `COc1cc(C(=O)N(NC(=O)c2ccc3c(c2C)OCCO3)C(C)(C)C)cc(OC)c1C` equals 6.93

Entry `Cc1cc(C)cc(C(=O)N(NC(=O)c2ccc3c(c2C)OCCO3)C(C)(C)C)c1` — recorded pEC50 = 6.99

# credit: patent US9102648B1
